Biological target: T1, active heparanase (H53), heterodimer of the 8 kDa and 45 kDa subunits (human, UniProt Q9Y251 36-109; Q9Y251 158-543)
T1 sequence 1: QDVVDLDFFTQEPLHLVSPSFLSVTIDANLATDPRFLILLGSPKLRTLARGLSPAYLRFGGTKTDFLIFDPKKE
T1 sequence 2: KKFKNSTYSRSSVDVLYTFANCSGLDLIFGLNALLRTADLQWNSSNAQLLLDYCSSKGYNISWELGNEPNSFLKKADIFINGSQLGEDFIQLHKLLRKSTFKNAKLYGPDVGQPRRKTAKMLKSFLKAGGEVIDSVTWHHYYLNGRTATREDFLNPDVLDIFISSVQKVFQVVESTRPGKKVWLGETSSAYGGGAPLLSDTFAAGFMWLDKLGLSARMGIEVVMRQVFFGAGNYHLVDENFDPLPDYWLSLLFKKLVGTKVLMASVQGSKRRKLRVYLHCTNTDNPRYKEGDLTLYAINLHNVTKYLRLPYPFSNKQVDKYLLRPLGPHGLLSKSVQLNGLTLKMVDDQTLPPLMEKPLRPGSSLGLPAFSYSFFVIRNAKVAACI
Assay: cell-based or functional assay
# reported IC50 H53; entries follow
Numbers only; they are read as µM.

// known answers, use as guide
# binder, u, IC50 H53
rows = [
    ("LRTLARGLSPAYL [P8-5]", "µM", 18),
    ("RFLILL [P8-18]", "µM", 5),
]

# next binder below
[ask] Dear colleague, I am looking for the recorded IC50 H53 of the following binder: DPRFLILL [P8-16]
[reply] 6
